These measurements were taken from paper PMC10535864.

target: BRD4 (BD2) (Homo sapiens, UniProt O60885); construct: BRD4 (BD2) should be thawed on ice; purchased; assay: BRD4 inhibitory activity assay (AlphaLISA Bromodomain Assay); assay type: binding; conditions: BRD4 Lab Report; conc 100 (unit not given);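 also: in vitro inhibition of recombinant BRD4 BD2 bromodomain binding to a BET bromodomain ligand, read by AlphaLISA proximity signal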
TEST READOUT: %inh (%)
Answer with a number only, understood to be in %.

The following compounds have reported results that may help.
- SUBSTANCE SMILES: "COc1ccc(/C(CBr)=N\\c2c(N)n(Cc3ccccc3Cl)c(=O)[nH]c2=O)cc1"
  %inh, %: 94
- SUBSTANCE SMILES: "CCn1c(N)c(/N=C(/CBr)c2ccc(OC)cc2)c(=O)[nH]c1=O"
  %inh, %: 95
- SUBSTANCE SMILES: "Nc1c(/N=C(/CBr)c2ccccc2)c(=O)[nH]c(=O)n1Cc1ccccc1"
  %inh, %: 95

// lookup %inh for `Cn1c(SCC(=O)c2ccccc2)nc(=O)c(/N=C(/CBr)c2ccccc2)c1N`
95

---

Some compounds, each annotated with its measured viability at 2.5 µM.
assay: MTT cytotoxicity assay, normal Vero cells; assay type: cell-based; settings: African green monkey, normal Vero cells; Vero; MTT; 2.5 uM;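 also: monolayers exposed to two-fold dilutions in 2% serum medium, MTT added for 4 h, formazan in DMSO read at 560 nm minus 620 nm, controls given medium alone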
Answer with a number only, understood to be in %.

The following compounds have reported results that may help.
- COMPOUND: "CCn1c(N)c(/N=C(/CBr)c2ccc(OC)cc2)c(=O)[nH]c1=O"
  UNITS: "%"
  viability at 2.5 µM: 26.8
- COMPOUND: "Nc1c(/N=C(/CBr)c2ccccc2)c(=O)[nH]c(=O)n1Cc1ccccc1"
  UNITS: "%"
  viability at 2.5 µM: 23.6
- COMPOUND: "Cn1c(SCC(=O)c2ccccc2)nc(=O)c(/N=C(/CBr)c2ccccc2)c1N"
  UNITS: "%"
  viability at 2.5 µM: 73.5
- COMPOUND: "CN(Cc1cnc2nc(N)nc(N)c2n1)c1ccc(C(=O)N[C@@H](CCC(=O)O)C(=O)O)cc1 [Methotrexate, reference compound]"
  UNITS: "%"
  viability at 2.5 µM: 97.3

Now consider the entry below.
// lookup viability at 2.5 µM for `COc1ccc(/C(CBr)=N\c2c(N)n(Cc3ccccc3Cl)c(=O)[nH]c2=O)cc1`
38.4

---

system: HT-29 colorectal adenocarcinoma cells; assay: MTT cytotoxicity assay, HT-29; type: cell-based; conditions: HT29; MTT; 0.312 uM
Mark true for reported Toxicity % of 0.1% or greater; mark false for anything smaller.

- MOLECULE: "COc1ccc(/C(CBr)=N\\c2c(N)n(Cc3ccccc3Cl)c(=O)[nH]c2=O)cc1"
  CLASS NAME: "true"
- MOLECULE: "Nc1c(/N=C(/CBr)c2ccc([N+](=O)[O-])cc2)c(=O)[nH]c(=O)n1Cc1ccccc1"
  CLASS NAME: "false"
- MOLECULE: "COc1ccc(-c2cnc3c(n2)c(=O)[nH]c(=O)n3Cc2ccccc2)cc1"
  CLASS NAME: "true"

Can `CCn1c(N)c(/N=C(/CBr)c2ccc(OC)cc2)c(=O)[nH]c1=O` be said to have Toxicity % at or above 0.1%?
true

Can `Nc1c(/N=C(/CBr)c2ccccc2)c(=O)[nH]c(=O)n1Cc1ccccc1` be said to have Toxicity % at or above 0.1%?
true

Can CN(Cc1cnc2nc(N)nc(N)c2n1)c1ccc(C(=O)N[C@@H](CCC(=O)O)C(=O)O)cc1 [Methotrexate, reference compound] be said to have Toxicity % at or above 0.1%?
true

Can `Cn1c(SCC(=O)c2ccccc2)nc(=O)c(/N=C(/CBr)c2ccccc2)c1N` be said to have Toxicity % at or above 0.1%?
false
